These measurements were taken from ChEMBL document CHEMBL4831480.

target: Kallikrein-4 (Homo sapiens) (UniProt Q9Y5K2); assay: Inhibition of KLK4 (unknown origin) assessed as inhibition of release of AMC fluorescent product using H-VPR-AMC as substrate at 10 uM incubated for 30 mins by microplate reader relative to control
Sequence (Q9Y5K2 whole entry): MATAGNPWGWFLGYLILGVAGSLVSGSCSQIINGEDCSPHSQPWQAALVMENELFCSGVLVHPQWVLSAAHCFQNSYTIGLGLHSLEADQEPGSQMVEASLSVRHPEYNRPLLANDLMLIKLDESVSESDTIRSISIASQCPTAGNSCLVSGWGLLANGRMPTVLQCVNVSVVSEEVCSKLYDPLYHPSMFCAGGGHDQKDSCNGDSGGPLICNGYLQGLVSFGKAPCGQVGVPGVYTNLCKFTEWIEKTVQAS
MEASURED METRIC: inhibition (%)

Would you please look over these solved cases?
COc1ccc2c(O)c(C(=O)Nc3ccc(CN)cc3)ccc2c1; 3
Cc1ccc(C(=O)Nc2ccc(CN)cc2)c(O)c1.Cl; 0
Cl.NCc1ccc(NC(=O)c2cc3ccccc3cc2O)cc1; 2
Cc1ccc2ccc(C(=O)Nc3ccc(CN)cc3)c(O)c2c1; 6
Cl.NCc1ccc(NC(=O)c2ccc3ccccc3c2O)cc1; 14

(A) CC(C)c1ccc(C(=O)Nc2ccc(CN)cc2)c(O)c1
(B) CC(C)(C)c1ccc(O)c(C(=O)Nc2ccc(CN)cc2)c1.Cl
# input Recorded inhibition values differ for A and B ; which one is higher? Mark your answer with the label of the selected entry.
# output A
(A: 45%, B: 0%)

====

Biological target: Kallikrein-11 (Homo sapiens)
Sequence (whole entry): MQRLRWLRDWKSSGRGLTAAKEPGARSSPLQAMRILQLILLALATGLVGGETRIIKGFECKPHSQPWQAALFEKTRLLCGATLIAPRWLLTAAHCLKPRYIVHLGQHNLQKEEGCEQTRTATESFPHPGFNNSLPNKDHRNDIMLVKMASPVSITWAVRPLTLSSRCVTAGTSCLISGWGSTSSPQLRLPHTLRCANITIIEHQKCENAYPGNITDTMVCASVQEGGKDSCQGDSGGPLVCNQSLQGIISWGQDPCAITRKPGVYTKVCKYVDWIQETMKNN
Assay: Inhibition of KLK11 (unknown origin) assessed as inhibition of release of AMC fluorescent product using Boc-QAR-AMC as substrate at 10 uM incubated for 30 mins by microplate reader relative to control
MEASURED METRIC: inhibition (%)

Cl.NCc1ccc(NC(=O)c2ccc3ccccc3c2O)cc1; 80
CC(C)c1ccc(C(=O)Nc2ccc(CN)cc2)c(O)c1; 75

(I) CC(C)(C)c1ccc(O)c(C(=O)Nc2ccc(CN)cc2)c1.Cl
(II) Cc1ccc2ccc(C(=O)Nc3ccc(CN)cc3)c(O)c2c1
# input Which record shows the lower inhibition: the first, I , or the second, II ? Mark your answer with the label of the selected entry.
# output I
(I: 56%, II: 88%)
